assay: Ampicillin blood level after administration with galenical extract by stomach probe (Experimental method B); assay type: in vivo; conditions: rat, in vivo, po, 25 mg/kg, Concentration in Blood, 10 min. (- Control)
endpoint-name: concentration at 10 min (ng/mL)
Reply numerically in ng/mL, unit not repeated.

Sample CC1(C)S[C@@H]2[C@H](NC(=O)[C@H](N)c3ccccc3)C(=O)N2[C@H]1C(=O)O [ampicillin sodium] — what was its concentration at 10 min?
400

====

assay: Ampicillin blood level after administration with galenical extract by stomach probe (Experimental method B); format: in vivo; conditions: rat, in vivo, po, 25 mg/kg, Concentration in Blood, 90 min. (- Control)
endpoint-name: concentration at […] (ng/mL)
Reply numerically in ng/mL, unit not repeated.

Sample CC1(C)S[C@@H]2[C@H](NC(=O)[C@H](N)c3ccccc3)C(=O)N2[C@H]1C(=O)O [ampicillin sodium] — what was its concentration at […]?
300
